PROCEDURE DETAILS: Solubility in water/DMSO at 60° C.
Type: physicochemical
MEASUREMENT SETUP: water/DMSO, 60 °C, organic solvent or mixture, thermodynamic from solid, Water/DMSO at 60° C., 8.5 % water by volume
MEASURED ATTRIBUTE: solubility at 24 h (mg/mL)
A number alone suffices; assume mg/mL.

Value of measured solubility at 24 h for the entry Cc1[nH]ncc1-c1cc2nc([C@@H]3CC4CCN3CC4)[nH]c(=O)c2s1 [Compound 1 Crystalline Form A, hemihydrate] : 51

* * *

PROCEDURE DETAILS: Solubility in 200 mM phosphate buffer (pH 6.8)
Type: physicochemical
MEASUREMENT SETUP: phosphate buffer, 10 °C, pH 6.8, aqueous buffer, thermodynamic from solid
Procedure: About 2 mg of Compound 1 Crystalline Form A made in example 2 or Compound 1 Crystalline Form I made in example 3-2 and 2 mL of 200 mM phosphate buffer (pH 6.8) were added into a glass test tube. The test tube was shaken vigorously and incubated at 10° C., 20° C., 30° C. or 40° C. for 20 hrs. After the incubation, the suspension was centrifuged and the supernatant was filtered through a 0.22 μm pore membrane filter. […] Concentration was determined by HPLC.
MEASURED ATTRIBUTE: solubility at 20 h
Report field: quantity (unit follows the number).

solubility at 20 h in this record for Cc1[nH]ncc1-c1cc2nc([C@@H]3CC4CCN3CC4)[nH]c(=O)c2s1 [Compound 1 Crystalline Form A, hemihydrate] : 102 µg/mL
